# target: UniProtKB P42574
# Sequence (P42574 29-175 limits assumed): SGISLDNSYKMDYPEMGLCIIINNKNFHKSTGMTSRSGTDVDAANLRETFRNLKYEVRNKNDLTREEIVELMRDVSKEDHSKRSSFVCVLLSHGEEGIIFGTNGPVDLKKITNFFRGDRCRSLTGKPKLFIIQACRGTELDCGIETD
# Sequence (P42574 176-277 limits assumed): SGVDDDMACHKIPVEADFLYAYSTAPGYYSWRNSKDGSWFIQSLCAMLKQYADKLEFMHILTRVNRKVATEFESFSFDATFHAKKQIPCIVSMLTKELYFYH
# Type: functional
Active and inactive are the calls of the source.
endpoint: IC50

The following compounds have reported results that may help.
[
  {
    "line-notation": "O=C(COC(=O)c1ccc([N+](=O)[O-])s1)NCCc1ccccc1",
    "IC50": "9.7 µM (active)"
  },
  {
    "line-notation": "CCOC(=O)c1c(NS(=O)(=O)c2ccccc2)n(CCCOC)c2nc3ccccc3nc12",
    "IC50": "10 µM (active)"
  },
  {
    "line-notation": "O=[N+]([O-])c1cccc(/C=N/Nc2ccccn2)c1",
    "IC50": "8.82 µM (active)"
  }
]

Problem: Looking for the measured IC50 of CCOC(=O)c1ccc(NC(=O)/C=C/c2cccs2)cc1 , can you help?
Solution: 21.6 µM (active)

Problem: Continue with O=C(O)c1ccc2cc(-c3ccccc3)[nH]c2c1
Solution: 1.22 µM (active)

Problem: Continue with Cc1ccc(Cl)c2sc(NC(=O)C3=COCCO3)nc12
Solution: 63.4 µM (active)

// data source = ChEMBL document CHEMBL1201862
